B1: HNF4A (parent)
chain: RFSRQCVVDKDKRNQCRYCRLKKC

variants of: B1; assay: protein stability index of a GFP-peptide fusion (GPS, HEK-293T) (PSI 1-6); higher = more stable; conditions: c terminus: a fixed tail appended;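 further: lentivirally expressed fusions sorted by FACS into six bins by GFP to DsRed ratio, PSI derived from sequencing read proportions per bin multiplied by bin number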
measured_property: protein stability index
Keep the answer to the number alone.

### Prompt Which value of protein stability index has been reported for R20C in the records?
### Response 2.24

### Prompt Which protein stability index value is on record for R4C ?
### Response 3.38

### Prompt # query: protein stability index of entry R13S
### Response 2.65

### Prompt May I ask what protein stability index has been recorded for K12C ?
### Response 2.07

### Prompt Sample Q15R — what was its protein stability index?
### Response 2.73

### Prompt Name the recorded protein stability index for R17M .
### Response 2.79

### Prompt # get_value(readout='protein stability index', item= S3I )
### Response 2.77

### Prompt Would you kindly share the measured protein stability index for C6S ?
### Response 2.72

### Prompt Fill in the blank: the reported protein stability index of Q15A is ____.
### Response 2.47

### Prompt So what does the record say about protein stability index for R13T ?
### Response 2.99

### Prompt // lookup protein stability index for Y18M
### Response 3.13

### Prompt State the recorded protein stability index for this entry: V8R
### Response 3.24

### Prompt Suppose we examine the variant R20H ; what protein stability index value has been reported?
### Response 1.58

### Prompt Which protein stability index value belongs to R17S ?
### Response 2.4

### Prompt Recorded protein stability index for D9T , please?
### Response 2.27

### Prompt Recorded protein stability index for C24H , please?
### Response 2.77

### Prompt What measured protein stability index goes with R20I ?
### Response 2.42

### Prompt # query: protein stability index of entry F2L
### Response 3.06

### Prompt For R13V , what is its reported protein stability index?
### Response 2.7

### Prompt Given the entry K10F , report its measured protein stability index.
### Response 1.98
